- Test Method Notes: Multiple ascending dose study: plasma pharmacokinetics
- Assay type: in vivo
- Experimental Context: human, po, 400 mg, Day 14, 400 mg QD oral, Japanese, read-out: AUC(0-inf) GM (% CV)
- Protocol: Four sequential cohorts of healthy participants (≥50 years and ≤85 years old) were treated with multiple ascending doses of Compound A up to the maximum tolerated dose (MTD). A total of 6 participants per cohort were randomized to Compound A. Proposed doses of Compound A were: Participants received Compound A capsules, orally once daily (QD) on Days 1 to 14 after an overnight fast of at least 10 hours. Compound A was administered orally with 240 milliliter (mL) (8 fluid ounces) of water. […]
Endpoint: AUC(0-inf) (µg·h/mL)

# Cpd Smiles, Reported Measurement
data = [
    ("COc1ncc(C)c(-c2ccc3c(c2)[nH]c(=O)c2cnn([C@H]4CCOC4)c23)c1C", 122),
]

* * *

- Test Method Notes: Single dose clinical study: plasma Compound A pharmacokinetics
- Assay type: in vivo, human
- Experimental Context: human, plasma, po, 100 mg, plasma, Japanese Subjects (Part D), single oral 100 mg; read-out: Vz/F GM (% CV)

# Cpd Smiles, Units Of Measure, Vd/F
records = [
    ("COc1ncc(C)c(-c2ccc3c(c2)[nH]c(=O)c2cnn([C@H]4CCOC4)c23)c1C", "L", 240),
]

* * *

- Test Method Notes: Single dose clinical study: plasma Compound A pharmacokinetics
- Format: in vivo, human
- Experimental Context: human, plasma, po, 800 mg, plasma, healthy adults (Parts A,B), single oral 800 mg, fasted; read-out: AUC(0-t) GM

# Cpd Smiles, AUC(0-t) [ng·h/mL]
records = [
    ("COc1ncc(C)c(-c2ccc3c(c2)[nH]c(=O)c2cnn([C@H]4CCOC4)c23)c1C", 64300),
]

* * *

- Test Method Notes: Single dose clinical study: plasma Compound A pharmacokinetics
- Format: in vivo, human
- Experimental Context: human, plasma, po, 100 mg, plasma, Part B 100 mg cohort, single oral 100 mg, Fed (high-fat meal); read-out: AUC (0-t) GM (% CV)

# Compound, AUC(0-t) / ng·h/mL
records = [
    ("COc1ncc(C)c(-c2ccc3c(c2)[nH]c(=O)c2cnn([C@H]4CCOC4)c23)c1C [Compound A]", 17100),
]

* * *

- Test Method Notes: Multiple ascending dose study: plasma pharmacokinetics
- Type: in vivo
- Experimental Context: human, po, 25 mg, Day 14, 25 mg QD oral, read-out: AUC(0-24 h) GM (% CV)

# Cpd Smiles, AUC(0-t) / ng·h/mL
data = [
    ("COc1ncc(C)c(-c2ccc3c(c2)[nH]c(=O)c2cnn([C@H]4CCOC4)c23)c1C", 5140),
]

* * *

- Test Method Notes: Multiple ascending dose study: plasma pharmacokinetics
- Assay type: in vivo
- Experimental Context: human, po, 25 mg, Day 14, 25 mg QD oral, read-out: Cmax Mean (SD)
Endpoint: Cmax (µg/mL)

# Cpd Smiles, Endpoint, Reported Measurement
rows = [
    ("COc1ncc(C)c(-c2ccc3c(c2)[nH]c(=O)c2cnn([C@H]4CCOC4)c23)c1C", "Cmax", 0.336),
]

* * *

- Test Method Notes: Multiple ascending dose study: plasma pharmacokinetics
- Assay type: in vivo
- Experimental Context: human, po, 200 mg, Day 1, 200 mg QD oral, read-out: AUC(0-24 h) Mean (SD)

# Cpd Smiles, Units Of Measure, AUC(0-t)
rows = [
    ("COc1ncc(C)c(-c2ccc3c(c2)[nH]c(=O)c2cnn([C@H]4CCOC4)c23)c1C", "ng·h/mL", 9050),
]
